Data provenance: patent US20150139990A1

Biological target: T1, human CD81 mutant L165A (human, UniProt P60033 1-236, limits assumed)
T1 construct: as m30; not shown: C-terminal V5 and 6xHis tags
T1 sequence: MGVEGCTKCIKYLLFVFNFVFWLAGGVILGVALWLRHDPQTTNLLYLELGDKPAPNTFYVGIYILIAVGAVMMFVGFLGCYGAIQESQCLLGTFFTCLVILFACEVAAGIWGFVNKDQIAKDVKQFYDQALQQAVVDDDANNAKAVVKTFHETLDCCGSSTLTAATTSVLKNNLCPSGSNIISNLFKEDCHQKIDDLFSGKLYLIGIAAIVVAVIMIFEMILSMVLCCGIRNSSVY
Experiment: ELISA
measurement_type: relative binding affinity

Sample records with relative binding affinity:
- binder: "003-A11 (antibody, human IgG4 S228P, lambda, V domains shown, IgG4 S228P) VH: EVQLLESGGGLVQPGGSLRLSCAASGFTFGSNYMSWVRQAPGKGLEWVSYISSSSTYTDYADSVKGRFTISRDNSKNTLYLQMNSLRAEDTAVYYCARYSYGRDNFDYWGQGTLVTVSS VL: QSVLTQPPSASGTPGQRVTISCTGSTSNIGAGYDTHWYQQLPGTAPKLLIYGNSNRPSGVPDRFSGSKSGTSASLAISGLRSEDEADYYCQSYDTNLSGWVFGGGTKLTVLG"
  relative binding affinity: "< 20%"
- binder: "002-C02 (antibody, human IgG4 S228P, lambda, V domains shown, IgG4 S228P) VH: EVQLLESGGGLVQPGGSLRLSCAASGFTFSSNYMSWVRQAPGKGLEWVSYISSSSSYTDYADTVKGRFTISRDNSKNTLYLQMNSLRAEDTAVYYCASYSYGRDSFDYWGQGTLVTVSS VL: QSVLTQPPSASGTPGQRVTISCTGSTSNIGAGYDTHWYQQLPGTAPKLLIYGNSNRPSGVPDRFSGSKSGTSASLAISGLRTEDEADYYCQSYDTNLSVWVFGGGTKLTVLG"
  relative binding affinity: "< 20%"

Here is another binder to look at.
q: Need relative binding affinity, item 002-H03 (antibody, human IgG4 S228P, lambda, V domains shown, IgG4 S228P) VH: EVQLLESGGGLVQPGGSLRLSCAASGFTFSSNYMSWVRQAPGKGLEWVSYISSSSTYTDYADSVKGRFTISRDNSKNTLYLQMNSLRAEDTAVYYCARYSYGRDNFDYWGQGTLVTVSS VL: QSVLTQPSSASGTPGQRVTISCTGSTSNIGAGYDTHWYQQLPGTAPKPLIYGNSNRPSGVPDRFSGSKSGTSASLAISGLRSEDEADYYCQSYDTNLSAWVFGGGTKLTVLG
a: < 20%
